- testTarget: SHP2-C SH2;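 note: peptide library displayed on the E. coli surface as eCPX fusions, selected cells deep-sequenced, score is each peptide's frequency after selection divided by its frequency in the input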
- methodSummary: SH2 binding enrichment of the phosphorylated peptide, bacterial display (enrichment ratio); higher = better substrate or ligand; peptides without Tyr show the background
reportedMetric: SH2 binding enrichment

[
  {
    "residueCodes": "EERKTYVNTML [TEK_Y1102_T1106M]",
    "readoutValue": 0.606
  },
  {
    "residueCodes": "SMEGLYSSAQD [CLIC5_Y111_T114A]",
    "readoutValue": 0.595
  },
  {
    "residueCodes": "HNELYYEAAEH [VANGL1_Y345_E347A]",
    "readoutValue": 0.606
  },
  {
    "residueCodes": "SQPASYQRRFL [PPIG_Y320_L324F]",
    "readoutValue": 0.61
  },
  {
    "residueCodes": "TDKLFYIFTPG [SLC27A4_Y243_S247P_YF]",
    "readoutValue": 0.604
  },
  {
    "residueCodes": "QEGPEYWDLET [HLA-A_Y83_Q86L]",
    "readoutValue": 0.583
  },
  {
    "residueCodes": "TKLKDYFIFNK [CCDC42_Y149_A144T_YF]",
    "readoutValue": 0.595
  }
]

* * *

Below is a list of entries, each paired with its recorded phosphorylation enrichment value.
- testTarget: EPHB2 (UniProt P29323)
- Sequence (P29323 whole entry, looked up): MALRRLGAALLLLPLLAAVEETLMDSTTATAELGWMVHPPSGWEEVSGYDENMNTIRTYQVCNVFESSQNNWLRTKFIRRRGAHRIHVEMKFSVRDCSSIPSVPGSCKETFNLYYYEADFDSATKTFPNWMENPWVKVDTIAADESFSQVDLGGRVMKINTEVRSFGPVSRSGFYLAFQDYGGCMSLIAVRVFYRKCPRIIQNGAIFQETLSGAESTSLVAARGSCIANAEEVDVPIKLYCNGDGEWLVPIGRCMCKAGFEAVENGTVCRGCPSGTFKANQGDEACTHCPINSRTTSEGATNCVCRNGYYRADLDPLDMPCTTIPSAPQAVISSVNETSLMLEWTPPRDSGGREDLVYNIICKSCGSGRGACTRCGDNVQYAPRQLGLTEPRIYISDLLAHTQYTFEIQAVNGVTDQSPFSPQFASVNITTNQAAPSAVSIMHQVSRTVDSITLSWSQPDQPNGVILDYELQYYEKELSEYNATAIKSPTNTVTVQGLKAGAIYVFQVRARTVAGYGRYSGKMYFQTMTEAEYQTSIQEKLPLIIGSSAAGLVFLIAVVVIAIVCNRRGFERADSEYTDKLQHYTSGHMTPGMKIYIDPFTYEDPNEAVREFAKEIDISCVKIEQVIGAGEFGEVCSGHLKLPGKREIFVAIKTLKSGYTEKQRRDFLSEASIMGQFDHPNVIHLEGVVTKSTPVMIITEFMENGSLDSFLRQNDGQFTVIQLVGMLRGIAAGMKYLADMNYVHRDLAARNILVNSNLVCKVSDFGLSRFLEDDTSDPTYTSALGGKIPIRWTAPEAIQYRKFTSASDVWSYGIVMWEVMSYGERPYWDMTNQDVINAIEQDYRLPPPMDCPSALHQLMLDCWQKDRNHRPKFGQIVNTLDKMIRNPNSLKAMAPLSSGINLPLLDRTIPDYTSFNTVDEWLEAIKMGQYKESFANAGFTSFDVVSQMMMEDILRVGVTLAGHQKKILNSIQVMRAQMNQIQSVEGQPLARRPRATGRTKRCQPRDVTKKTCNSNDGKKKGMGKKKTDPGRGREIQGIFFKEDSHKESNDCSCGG
- methodSummary: phosphorylation enrichment, bacterial display (enrichment ratio); higher = better substrate or ligand; peptides without Tyr show the background
Reply with just the number.

[
  {
    "residueCodes": "KMKGDYFRFLA [YWHAG_Y130_YF]",
    "reportedMetric": "phosphorylation enrichment",
    "readoutValue": 0.509
  },
  {
    "residueCodes": "VERRVYAEDPY [PCCA_Y401_C398R]",
    "reportedMetric": "phosphorylation enrichment",
    "readoutValue": 0.507
  },
  {
    "residueCodes": "IRYPPYTDWNQ [ALDH3B2_Y365_H361R]",
    "reportedMetric": "phosphorylation enrichment",
    "readoutValue": 0.494
  }
]

phosphorylation enrichment in this record for DFLSSYSAVNQ [OAT_Y85] : 0.493

phosphorylation enrichment in this record for FLKDVYVDSKD [NDUFAF4_Y69] : 0.512

* * *

- testTarget: Jak2 (UniProt O60674)
- Sequence (O60674 whole entry, looked up): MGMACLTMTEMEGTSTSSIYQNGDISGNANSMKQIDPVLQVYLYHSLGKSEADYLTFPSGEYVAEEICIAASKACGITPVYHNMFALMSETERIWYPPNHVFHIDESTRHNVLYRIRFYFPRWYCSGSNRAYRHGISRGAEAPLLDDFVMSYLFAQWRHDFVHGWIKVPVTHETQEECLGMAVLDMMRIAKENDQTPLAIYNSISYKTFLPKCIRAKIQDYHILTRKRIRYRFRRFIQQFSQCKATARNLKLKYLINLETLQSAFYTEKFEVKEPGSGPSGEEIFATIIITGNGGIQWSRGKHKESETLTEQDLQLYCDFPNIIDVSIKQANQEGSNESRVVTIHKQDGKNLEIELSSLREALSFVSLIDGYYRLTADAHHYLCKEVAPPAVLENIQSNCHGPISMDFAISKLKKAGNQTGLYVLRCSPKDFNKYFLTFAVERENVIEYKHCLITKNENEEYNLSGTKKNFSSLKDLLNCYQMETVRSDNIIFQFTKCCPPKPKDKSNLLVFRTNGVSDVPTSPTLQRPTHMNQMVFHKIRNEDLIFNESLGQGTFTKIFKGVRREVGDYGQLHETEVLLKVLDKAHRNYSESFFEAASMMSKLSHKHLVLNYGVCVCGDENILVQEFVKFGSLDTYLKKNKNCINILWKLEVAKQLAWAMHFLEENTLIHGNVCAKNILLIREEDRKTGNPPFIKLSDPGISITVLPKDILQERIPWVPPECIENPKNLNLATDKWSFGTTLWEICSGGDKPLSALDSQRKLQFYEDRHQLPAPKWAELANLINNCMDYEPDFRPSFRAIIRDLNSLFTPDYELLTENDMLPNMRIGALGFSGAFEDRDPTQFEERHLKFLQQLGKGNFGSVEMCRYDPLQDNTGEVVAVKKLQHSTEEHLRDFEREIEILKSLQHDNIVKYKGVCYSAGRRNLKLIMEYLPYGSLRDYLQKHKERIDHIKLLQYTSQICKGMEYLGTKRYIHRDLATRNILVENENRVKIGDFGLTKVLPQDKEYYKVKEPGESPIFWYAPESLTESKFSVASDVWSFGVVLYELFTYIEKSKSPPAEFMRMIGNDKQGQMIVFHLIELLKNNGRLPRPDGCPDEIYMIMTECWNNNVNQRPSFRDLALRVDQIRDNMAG
- methodSummary: phosphorylation enrichment, bacterial display (enrichment ratio); higher = better substrate or ligand; peptides without Tyr show the background
reportedMetric: phosphorylation enrichment
Reply with just the number.

Field: example entries. Status: answers known.
[
  {
    "residueCodes": "RSFSPCDFQPC [TNS1_Y796_Y796C_YF]",
    "readoutValue": 0.705
  },
  {
    "residueCodes": "AKKVFYVIETR [SHH_Y253]",
    "readoutValue": 1.01
  },
  {
    "residueCodes": "TKLKDYFIFNK [CCDC42_Y149_A144T_YF]",
    "readoutValue": 0.702
  },
  {
    "residueCodes": "EKLQKYFRKNP [EHHADH_Y682_Q685K_YF]",
    "readoutValue": 0.991
  },
  {
    "residueCodes": "NTCNRYCRDEI [ITGB3_Y660]",
    "readoutValue": 0.714
  }
]

phosphorylation enrichment in this record for YDKEYYSVHNK [MET_Y1235] : 1.01

phosphorylation enrichment in this record for PLQKTYNYNVL [SLC4A1_Y553] : 0.986

* * *

- testTarget: EPHB1 (UniProt P54762)
- Sequence (P54762 whole entry, looked up): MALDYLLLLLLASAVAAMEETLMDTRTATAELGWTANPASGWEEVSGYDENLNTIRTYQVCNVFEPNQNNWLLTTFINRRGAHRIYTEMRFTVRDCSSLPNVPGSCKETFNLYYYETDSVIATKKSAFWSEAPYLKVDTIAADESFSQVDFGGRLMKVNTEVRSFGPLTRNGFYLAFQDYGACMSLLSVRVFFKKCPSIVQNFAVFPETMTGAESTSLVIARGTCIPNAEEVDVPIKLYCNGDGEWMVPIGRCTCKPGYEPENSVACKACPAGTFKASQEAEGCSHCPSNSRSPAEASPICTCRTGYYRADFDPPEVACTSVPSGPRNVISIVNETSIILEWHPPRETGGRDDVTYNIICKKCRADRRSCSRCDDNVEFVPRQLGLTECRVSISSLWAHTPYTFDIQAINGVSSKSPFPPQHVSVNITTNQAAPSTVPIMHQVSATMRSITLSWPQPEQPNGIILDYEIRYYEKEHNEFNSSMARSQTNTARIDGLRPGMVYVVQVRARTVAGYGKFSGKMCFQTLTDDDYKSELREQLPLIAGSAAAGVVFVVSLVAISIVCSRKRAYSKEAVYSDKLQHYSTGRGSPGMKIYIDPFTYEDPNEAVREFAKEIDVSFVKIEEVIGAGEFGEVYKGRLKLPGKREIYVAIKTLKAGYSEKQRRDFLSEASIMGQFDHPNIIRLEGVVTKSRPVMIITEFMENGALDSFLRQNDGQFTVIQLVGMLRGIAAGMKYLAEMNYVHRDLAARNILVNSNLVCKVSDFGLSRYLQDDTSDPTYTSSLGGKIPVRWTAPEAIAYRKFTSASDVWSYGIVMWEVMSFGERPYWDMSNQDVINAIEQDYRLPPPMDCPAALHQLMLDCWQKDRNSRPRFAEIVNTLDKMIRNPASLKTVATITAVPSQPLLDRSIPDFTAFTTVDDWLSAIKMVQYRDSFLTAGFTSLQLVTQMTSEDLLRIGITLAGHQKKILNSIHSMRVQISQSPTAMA
- methodSummary: phosphorylation enrichment, bacterial display (enrichment ratio); higher = better substrate or ligand; peptides without Tyr show the background
Below is a list of entries, each paired with its recorded phosphorylation enrichment value.
Reply with just the number.

Field: example entries. Status: answers known.
[
  {
    "residueCodes": "TKDTFYKQRMF [GBA_Y451_P454R]",
    "phosphorylation enrichment": 0.359
  },
  {
    "residueCodes": "EKLQKYFRKNP [EHHADH_Y682_Q685K_YF]",
    "phosphorylation enrichment": 0.693
  },
  {
    "residueCodes": "TNIKRYHIAKG [HARS1_Y150_V155G]",
    "phosphorylation enrichment": 0.311
  },
  {
    "residueCodes": "ATHSRYRLNDF [CLDN14_Y233_G232R_YF]",
    "phosphorylation enrichment": 0.296
  },
  {
    "residueCodes": "GPQSLYNGLVA [UCP2_Y79_R76Q]",
    "phosphorylation enrichment": 0.477
  }
]

phosphorylation enrichment in this record for SGDDGYAKDAK [TENM4_Y1530] : 0.454

phosphorylation enrichment in this record for MASISYDFCRV [BST2_Y6_T4I_YF] : 0.692

phosphorylation enrichment in this record for DYLEKYYKFGC [NNMT_Y24_S29C] : 0.824

phosphorylation enrichment in this record for MGIMLYGVDSR [PKD1_Y3143_V3138M] : 0.546

phosphorylation enrichment in this record for SQSAKYDMAED [TTC21B_Y1213_I1208S] : 0.461

phosphorylation enrichment in this record for FAKTQYPDVYA [CRX_Y63] : 0.474

phosphorylation enrichment in this record for SFLSYYTSHVQ [NEFL_Y443_P440L] : 1.26

phosphorylation enrichment in this record for NLTLKYPIEHG [ACTA1_Y71_I66N] : 0.493

* * *

- testTarget: Hck (UniProt P08631)
- Sequence (P08631 whole entry, looked up): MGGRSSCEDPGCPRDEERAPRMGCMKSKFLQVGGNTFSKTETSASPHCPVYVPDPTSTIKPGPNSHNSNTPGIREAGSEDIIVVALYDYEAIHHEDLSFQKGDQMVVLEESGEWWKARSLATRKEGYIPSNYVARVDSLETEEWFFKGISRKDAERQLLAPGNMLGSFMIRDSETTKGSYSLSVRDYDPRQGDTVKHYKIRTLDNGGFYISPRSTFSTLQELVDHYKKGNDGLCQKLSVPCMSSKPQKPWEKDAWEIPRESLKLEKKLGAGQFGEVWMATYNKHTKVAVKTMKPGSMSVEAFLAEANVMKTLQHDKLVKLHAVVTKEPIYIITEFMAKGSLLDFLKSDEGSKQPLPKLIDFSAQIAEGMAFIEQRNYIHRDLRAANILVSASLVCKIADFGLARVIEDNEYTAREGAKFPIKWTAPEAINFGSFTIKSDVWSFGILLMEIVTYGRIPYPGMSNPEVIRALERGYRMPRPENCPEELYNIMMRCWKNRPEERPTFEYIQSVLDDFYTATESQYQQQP
- methodSummary: phosphorylation enrichment, bacterial display (enrichment ratio); higher = better substrate or ligand; peptides without Tyr show the background
reportedMetric: phosphorylation enrichment
Reply with just the number.

[
  {
    "residueCodes": "KMKGDYFRFLA [YWHAG_Y130_YF]",
    "phosphorylation enrichment": 0.543
  }
]

phosphorylation enrichment in this record for DSLASYLDKVR [KRT10_Y160_R156S] : 0.469

phosphorylation enrichment in this record for SQSAKYDMAED [TTC21B_Y1213_I1208S] : 0.582

phosphorylation enrichment in this record for GADDSYYTVRS [ZAP70_Y492_A495V] : 2.39

phosphorylation enrichment in this record for DLDATYRPMFS [JUP_Y701_M697L_YF] : 0.686

* * *

Below is a list of entries, each paired with its recorded phosphorylation enrichment value.
- testTarget: MERTK (UniProt Q12866)
- Sequence (Q12866 whole entry, looked up): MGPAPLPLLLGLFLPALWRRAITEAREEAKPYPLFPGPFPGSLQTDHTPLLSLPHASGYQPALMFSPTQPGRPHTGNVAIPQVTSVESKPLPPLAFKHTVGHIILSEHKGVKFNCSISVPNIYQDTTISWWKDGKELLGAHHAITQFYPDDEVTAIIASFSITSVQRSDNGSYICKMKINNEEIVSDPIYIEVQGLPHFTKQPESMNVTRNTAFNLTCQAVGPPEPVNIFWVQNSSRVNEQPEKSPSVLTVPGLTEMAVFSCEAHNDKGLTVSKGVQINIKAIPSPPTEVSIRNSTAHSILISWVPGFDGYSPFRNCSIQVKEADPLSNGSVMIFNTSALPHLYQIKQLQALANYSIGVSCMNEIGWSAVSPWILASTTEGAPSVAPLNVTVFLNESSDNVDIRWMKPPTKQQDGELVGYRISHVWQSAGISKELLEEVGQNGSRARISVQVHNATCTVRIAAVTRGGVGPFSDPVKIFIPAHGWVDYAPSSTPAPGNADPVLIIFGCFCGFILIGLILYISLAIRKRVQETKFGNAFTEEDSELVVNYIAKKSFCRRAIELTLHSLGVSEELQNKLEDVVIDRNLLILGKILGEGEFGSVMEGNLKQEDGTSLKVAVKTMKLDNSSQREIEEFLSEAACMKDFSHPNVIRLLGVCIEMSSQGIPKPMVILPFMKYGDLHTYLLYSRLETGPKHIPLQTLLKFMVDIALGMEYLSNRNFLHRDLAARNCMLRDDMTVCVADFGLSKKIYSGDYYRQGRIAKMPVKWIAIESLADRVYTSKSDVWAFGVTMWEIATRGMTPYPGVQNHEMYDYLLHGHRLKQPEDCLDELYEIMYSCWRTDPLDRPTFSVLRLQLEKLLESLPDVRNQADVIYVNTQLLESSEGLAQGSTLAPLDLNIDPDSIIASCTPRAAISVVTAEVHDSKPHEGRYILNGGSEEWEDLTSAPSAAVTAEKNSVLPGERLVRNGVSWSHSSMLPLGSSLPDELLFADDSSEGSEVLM
- methodSummary: phosphorylation enrichment, bacterial display (enrichment ratio); higher = better substrate or ligand; peptides without Tyr show the background
Reply with just the number.

[
  {
    "residueCodes": "NFATLYLKIFH [PDE6B_Y219_YF]",
    "phosphorylation enrichment": 0.457
  },
  {
    "residueCodes": "GPCKAYELSQR [SETX_Y1297_R1294C]",
    "phosphorylation enrichment": 0.451
  },
  {
    "residueCodes": "SASSSYSRSRS [SRRM4_Y549_R547S]",
    "phosphorylation enrichment": 0.447
  },
  {
    "residueCodes": "RRERDYTNLPS [CSF1R_Y923]",
    "phosphorylation enrichment": 0.558
  },
  {
    "residueCodes": "SLAARYYNWVC [FLT4_Y1230_S1235C]",
    "phosphorylation enrichment": 3.49
  }
]

phosphorylation enrichment in this record for FRIGPYQPNVP [MATR3_Y784_YF] : 0.532

phosphorylation enrichment in this record for KLNNEYLELNF [MME_Y497_YF] : 0.503

phosphorylation enrichment in this record for LEAVSYSSRFA [RNLS_Y190_YF] : 0.399

phosphorylation enrichment in this record for LRVGFYESDVM [A2M_Y708] : 2.61

phosphorylation enrichment in this record for QKFMAYPSQGG [HLCS_Y236_L237P] : 0.613

phosphorylation enrichment in this record for VERRVYAEDPY [PCCA_Y401_C398R] : 0.46

phosphorylation enrichment in this record for HIILLYIFLKN [STXBP1_Y411_R406H] : 0.657

phosphorylation enrichment in this record for GQRDLYSGLNQ [CD3E_Y199] : 5.2

* * *

- testTarget: Fyn (UniProt P06241)
- methodSummary: phosphorylation enrichment, bacterial display (enrichment ratio); higher = better substrate or ligand; peptides without Tyr show the background
reportedMetric: phosphorylation enrichment
Reply with just the number.

[
  {
    "residueCodes": "TLLPDYEDEEE [ZNF830_Y159_S154T]",
    "phosphorylation enrichment": 0.605
  },
  {
    "residueCodes": "GVIRHYVVCST [BTK_Y334]",
    "phosphorylation enrichment": 0.535
  },
  {
    "residueCodes": "KPYRVYCDMNT [FGB_Y269]",
    "phosphorylation enrichment": 0.6
  },
  {
    "residueCodes": "HLITAYRAHGF [PDHA1_Y118]",
    "phosphorylation enrichment": 0.551
  },
  {
    "residueCodes": "GYAGKYIAMVM [CYP19A1_Y441_C437Y]",
    "phosphorylation enrichment": 0.489
  },
  {
    "residueCodes": "FIAVGYVDDTQ [HLA-A_Y51]",
    "phosphorylation enrichment": 0.406
  },
  {
    "residueCodes": "RGYRVCYTPDS [PTPRF_Y450_Y450C]",
    "phosphorylation enrichment": 0.602
  },
  {
    "residueCodes": "IVKAFYVRARA [AIPL1_Y268_YF]",
    "phosphorylation enrichment": 0.433
  },
  {
    "residueCodes": "IFGVSYGEYRY [CFTR_Y512_D513G]",
    "phosphorylation enrichment": 7.22
  },
  {
    "residueCodes": "TSHKGYVAFLE [CARD9_Y76_G72S]",
    "phosphorylation enrichment": 0.353
  }
]

phosphorylation enrichment in this record for DPASAYADEVK [ETNPPL_Y189_S185P] : 0.492

phosphorylation enrichment in this record for NYADPYRQLQY [CTNND2_Y503] : 0.43

phosphorylation enrichment in this record for ATHSRYRLNDF [CLDN14_Y233_G232R_YF] : 0.329
